assay: Permeability in human Caco2 cells; format: ADME, cell-based; conditions: Caco-2, read-out: permeability

STRUCTURE | Papp (×10⁻⁶ cm/s)
Cc1ncnc(C2CC2)c1-c1ncc2nc(NCc3ccc(S(C)(=O)=O)cn3)c(=O)n([C@@H](C)C3CC3)c2n1 | 110

###

experiment: Clearance in Wistar Han rat at 1 mg/kg, iv measured at 5 to 1440 mins relative to hepatic blood flow; format: ADME, organism-based; details: in vivo, time 5-1440 min
Returns TRUE if the recorded CL is greater than or equal to 30%, and FALSE otherwise.

STRUCTURE | LABEL VALUE
CCS(=O)(=O)c1cnc(CNc2nc3cnc(-c4c(C)ncnc4C4CC4)nc3n([C@@H](C)C3CC3)c2=O)nc1 | FALSE
CC[C@@H](C)n1c(=O)c(NCc2ccc(S(=O)(=O)CC)cn2)nc2cnc(-c3c(OC)ncnc3C3CC3)nc21 | TRUE
CCS(=O)(=O)c1ccc(CNc2nc3cnc(-c4c(C)ncnc4C4CC4)nc3n(C(C)C)c2=O)nc1 | FALSE
CCS(=O)(=O)c1ccc(CNc2nc3cnc(-c4c(OC)ncnc4C4CC4)nc3n(C(C)C)c2=O)nc1 | TRUE
CCS(=O)(=O)c1ccc(CNC(=O)N2CC(C)(C)c3nc(-c4c(OC)ncnc4C4CC4)ccc32)cc1 | TRUE
CCS(=O)(=O)c1ccc(CNc2nc3cnc(-c4c(OC)ncnc4C4CC4)nc3n([C@@H](C)C3CC3)c2=O)nc1 | TRUE
CNS(=O)(=O)c1ccc(CNc2nc3cnc(-c4c(C)ncnc4C4CC4)nc3n([C@@H](C)C3CC3)c2=O)nc1 | TRUE
CCS(=O)(=O)c1ccc(CNc2nc3cnc(-c4c(OC)ncnc4C4CC4)nc3n([C@@H](C)C(F)(F)F)c2=O)nc1 | FALSE
CCS(=O)(=O)c1ccc(CNc2nc3cnc(-c4c(C)ncnc4C4CC4)nc3n([C@@H](C)C3CC3)c2=O)nc1 | FALSE
CCS(=O)(=O)c1ccc(CNc2nc3cnc(-c4c(OC)ncnc4C4CC4)nc3n([C@H](C)C3CC3)c2=O)nc1 | TRUE
CCS(=O)(=O)c1ccc(CNc2nc3cnc(-c4c(C)ncnc4C4CC4)nc3n([C@@H](C)C3CC3)c2=O)cn1 | FALSE
Cc1ncnc(C2CC2)c1-c1ncc2nc(NCc3ccc(S(C)(=O)=O)cn3)c(=O)n([C@@H](C)C3CC3)c2n1 | FALSE

###

experiment: Oral bioavailability in Wistar Han rat at 3 mg/kg measured at 15 to 1440 mins; assay type: ADME, organism-based; details: in vivo, time 15-1440 min

STRUCTURE | UNIT TEXT | bioavailability
Cc1ncnc(C2CC2)c1-c1ncc2nc(NCc3ccc(S(C)(=O)=O)cn3)c(=O)n([C@@H](C)C3CC3)c2n1 | % | 70
CCS(=O)(=O)c1ccc(CNc2nc3cnc(-c4c(C)ncnc4C4CC4)nc3n(C(C)C)c2=O)nc1 | % | 71
CC[C@@H](C)n1c(=O)c(NCc2ccc(S(=O)(=O)CC)cn2)nc2cnc(-c3c(OC)ncnc3C3CC3)nc21 | % | 20
CCS(=O)(=O)c1ccc(CNC(=O)N2CC(C)(C)c3nc(-c4c(OC)ncnc4C4CC4)ccc32)cc1 | % | 90
CCS(=O)(=O)c1ccc(CNc2nc3cnc(-c4c(C)ncnc4C4CC4)nc3n([C@@H](C)C3CC3)c2=O)cn1 | % | 61
CCS(=O)(=O)c1ccc(CNc2nc3cnc(-c4c(OC)ncnc4C4CC4)nc3n(C(C)C)c2=O)nc1 | % | 70
